tested-on: T1, Human TIM-3 Human Fc tagged protein (human, fluorescently labeled with HiLyte Fluor 555 (sites not given))
T1 construct: Bought construct; also called TIM-3 protein tagged with human Fc; ACROBiosystems catalog no: TM3-H5258
procedure-summary: capture slide probed with labeled TIM-3-Fc;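 note: IgG from single CD138-enriched plasma cells, isolated from lymphocytes, immobilized on a derivatized glass slide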

binder	binding result
SCT-Fa130 (antibody, V domains shown, murine IgG) VH: QVQLQQPGAELVMPGASVRLSCKASGYTFTTYWMHWVRQRPGQGLEWIGEIDPSDSYTNYNQNFKGKATLTVDKSSSTAYLQLSSLTSEDSAVYYCARNYGSNYVGYFDHWGQGTTLTVSS VL: DIQMTQTTSSLSASLGDRVTISCRASQDISNYLNWYQQKPDGTVKLLIYYTSRLHSGVPSSFSGSGSGTDYSLTISNLEQEDIATYFCQQANALPWTFGGGTKLEIK	binds
SCT-Fa100 (antibody, V domains shown, murine IgG) VH: QVQLKQSGAELVRPGTSVKLSCKASGYTLIDYYINWVKQRPGQGLEWIARIYPGNGNTYYNEKFKGKATLTAEKSSSTVNMQVSSLTSEDSAVYFCARGGSSDRIYYFAMDYWGQGTSVTVSS VL: DIQMNQSPSSLSASLGDTITITCHASQNINVWLSWYQQKPGNIPKLLIYKASNLHTGVPSRFSGSGSGTGFTLTISSLQPEDIATYYCQQGQSYPLTFGSGTKLEIK	binds
SCT-Fa177 (antibody, V domains shown, murine IgG) VH: QVQLQQSGAELVRPGASVTLSCKASGYTFTDYEMYWVKQTPVHGLEWIGVIDPETGGTAHDQKFKGKAILTADKSSSTAYMELRSLTSEDSAVYYCTRWAFWGQGTLVTVSA VL: DVVMTQTPLSLPVSLGDQASISCRSSQSLVHSNGNTYLHWYLQKPGQSPKLLIYKVSNRFSGVPDRFSGSGSGTDFTLRISRVEADDLGVYFCSQSTHVPYTFGGGTKLEIK	binds

Each recorded value in this set is attributed to patent US20230279105A1.
